Data provenance is patent US20260226068A1.

Listed molecules paired with reported pIC50
Target: IL-17A/A (Homo sapiens)
Test: IL-17A/A HEK-Blue cell assay (SEAP reporter)
Conditions: HEK-Blue IL-17A reporter cells, IL17A/A 5 ng/mL, 20 hours, SEAP read at A630; read-out: HEK-Blue IL17AA (IC50 for IL-17A/A inhibition)
pIC50: −log10 of the molar value.

molecule	pIC50
CCn1nccc1C(=O)N[C@H](c1cn2nc(C[C@H]3C[C@@H](C(F)(F)F)CNC3=O)c(C34CCOC(C3)C4)nc2n1)C1CCC(F)(F)CC1	> 7.00
O=C(N[C@H](c1cn2nc(C[C@H]3C[C@@H](C(F)(F)F)CNC3=O)c(C3CCCOC3)nc2n1)[C@H]1CCCC(F)(F)C1)c1nonc1C1CC1 (single isomer, unassigned) [Compound 125]	> 7.00
O=C(N[C@H](c1cn2nc(C[C@H]3C[C@@H](C(F)(F)F)CNC3=O)c(C3CCOCC3)nc2n1)C1CCC(F)(F)CC1)c1conc1C1CC1(F)F (single isomer, unassigned) [Compound 145]	> 7.00
O=C(N[C@H](c1cn2nc(CC3C[C@@H](C(F)(F)F)CNC3=O)cnc2n1)C1CCC(F)(F)CC1)c1conc1CCF (some centres unmarked)	6.00 to 7.00
CCn1nccc1C(=O)N[C@H](c1cn2nc(C[C@H]3C[C@@H](C(F)(F)F)CNC3=O)c(CN3CCCC4(CC4)C3)nc2n1)C1CCC(F)(F)CC1	> 7.00

###

Molecular target: IL-17A/F (Homo sapiens, UniProt Q16552+Q96PD4)
Sequence (Q16552 24-155): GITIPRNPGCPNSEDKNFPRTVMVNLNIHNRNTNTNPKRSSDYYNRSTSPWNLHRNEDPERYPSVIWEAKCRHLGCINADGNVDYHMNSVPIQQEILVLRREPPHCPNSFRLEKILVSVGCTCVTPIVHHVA
Sequence (Q96PD4 31-163): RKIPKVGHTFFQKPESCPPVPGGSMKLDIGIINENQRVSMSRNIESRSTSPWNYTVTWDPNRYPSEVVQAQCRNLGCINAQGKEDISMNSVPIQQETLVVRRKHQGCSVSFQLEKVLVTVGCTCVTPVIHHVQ
Test: IL-17A/F HEK-Blue cell assay (SEAP reporter)
Settings: HEK-Blue IL-17A reporter cells, IL17A/F 5 ng/mL, 20 hours, SEAP read at A630; read-out: HEK-Blue IL17AF (IC50 for IL-17A/F inhibition)

compound	IC50
O=C(N[C@H](c1cn2nc(CC3C[C@@H](C(F)(F)F)CNC3=O)c(N3CCOCC3)nc2n1)C1CCC(F)(F)CC1)c1nonc1C1CC1 (single isomer, unassigned) [Compound 21]	> 1000 nM
O=C(N[C@H](c1cn2nc(CC3C[C@@H](C(F)(F)F)CNC3=O)c(N3CCOCC3)nc2n1)C1CCC(F)(F)CC1)c1conc1C1CC1(F)F (single isomer, unassigned) [Compound 116]	> 1000 nM
CCn1nccc1C(=O)N[C@H](c1cn2nc(CC3C[C@H](C(F)(F)F)CNC3=O)c(N(C)C)nc2n1)C1CCC(F)(F)CC1 (single isomer, unassigned) [Compound 51]	> 1000 nM
CCn1nccc1C(=O)N[C@H](c1cn2nc(CC3C[C@@H](C(F)(F)F)CNC3=O)c(N3C[C@@H]4C[C@H]3CO4)nc2n1)C1CCC(F)(F)CC1 (single isomer, unassigned) [Compound 99]	> 1000 nM
CCn1nccc1C(=O)N[C@H](c1cn2nc(C[C@H]3C[C@@H](C(F)(F)F)CNC3=O)c([C@@H](C)C3CCOCC3)nc2n1)C1CCC(F)(F)CC1 (single isomer, unassigned)	100 to 1000 nM

###

Listed molecules paired with reported pIC50
Molecular target: IL-17A/F (Homo sapiens, UniProt Q16552+Q96PD4)
Assay: IL-17A/F HEK-Blue cell assay (SEAP reporter)
Settings: HEK-Blue IL-17A reporter cells, IL17A/F 5 ng/mL, 20 hours, SEAP read at A630; read-out: HEK-Blue IL17AF (IC50 for IL-17A/F inhibition)
pIC50: −log10 of the molar value.

molecule	pIC50
CCn1nccc1C(=O)N[C@H](c1cn2nc(C[C@H]3C[C@@H](C(F)(F)F)CNC3=O)c(C3CCCOC3)nc2n1)[C@@H]1CCCC(F)(F)C1 (single isomer, unassigned) [Compound 71]	6.00 to 7.00
O=C(N[C@H](c1cn2nc(C[C@H]3C[C@@H](C(F)(F)F)CNC3=O)c(N3CCOCC3)nc2n1)C1CCC(F)(F)CC1)OCc1cc(C(F)(F)F)on1	< 6.00
CCn1nccc1C(=O)N[C@H](c1cn2nc(C[C@H]3C[C@@H](C(F)(F)F)CNC3=O)c([C@H](C)N3CCOCC3)nc2n1)C1CCC(F)(F)CC1 (single isomer, unassigned)	< 6.00

###

Molecular target: IL-17A/A (Homo sapiens)
Assay: IL-17A/A HEK-Blue cell assay (SEAP reporter)
Details: HEK-Blue IL-17A reporter cells, IL17A/A 5 ng/mL, 20 hours, SEAP read at A630; read-out: HEK-Blue IL17AA (IC50 for IL-17A/A inhibition)
Listed compounds paired with reported IC50

compound	IC50
CC(C)c1nonc1C(=O)N[C@H](c1cn2nc(CC3C[C@@H](C(F)(F)F)CNC3=O)cnc2n1)C1CCC(F)(F)CC1 (some centres unmarked)	< 0.1 µM
CCn1nccc1C(=O)N[C@H](c1cn2nc(CN3C[C@@H](C(F)(F)F)CNC3=O)c(C3CCOCC3)nc2n1)C1CCC(F)(F)CC1	0.1 to 1 µM
CCn1nccc1C(=O)N[C@H](c1cn2nc(C[C@H]3C[C@@H](C(F)(F)F)CNC3=O)c([C@@H]3CCNC3)nc2n1)C1CCC(F)(F)CC1	0.1 to 1 µM
CCn1nccc1C(=O)N[C@H](c1cn2nc(C[C@@H]3C[C@@H](C)CNC3=O)c(C(C)C)nc2n1)C1CCC(F)(F)CC1	< 0.1 µM
CCn1nccc1C(=O)N[C@H](c1cn2nc(C[C@H]3CC4(CC4)CNC3=O)c(C3CCOCC3)nc2n1)C1CCC(F)(F)CC1	< 0.1 µM
CCn1nccc1C(=O)N[C@H](c1cn2nc(C[C@H]3C[C@@H](C(F)(F)F)CNC3=O)c(N3CCN(C(=O)OC(C)(C)C)[C@@H](C)C3)nc2n1)C1CCC(F)(F)CC1	0.1 to 1 µM
CCn1nccc1C(=O)N[C@H](c1cn2nc(C[C@H]3C[C@@H](C(F)(F)F)CNC3=O)c(N3CCO[C@@H](C)C3)nc2n1)C1CCC(F)(F)CC1	< 0.1 µM
CCc1nonc1C(=O)N[C@H](c1cn2nc(C[C@H]3C[C@H](C)CNC3=O)c(C3CCOCC3)nc2n1)C1CCC(F)(F)CC1	< 0.1 µM
CCn1nccc1C(=O)N[C@H](c1cn2nc(C[C@H]3C[C@@H](C(F)(F)F)CNC3=O)c(C3CC4CCC(C3)O4)nc2n1)C1CCC(F)(F)CC1 (some centres unmarked)	< 0.1 µM
CCn1nccc1C(=O)N[C@H](c1cn2nc(C[C@H]3C[C@@H](C(F)(F)F)CNC3=O)c(C3CCOCC3)nc2n1)C1CCCCCC1	< 0.1 µM
Cc1nonc1C(=O)N[C@H](c1cn2nc(C[C@H]3C[C@@H](C(F)(F)F)CNC3=O)c(N3CCN(C)CC3)nc2n1)C1CCC(F)(F)CC1	< 0.1 µM
CCn1nccc1C(=O)N[C@H](c1cn2nc(C[C@H]3C[C@@H](C(F)(F)F)CNC3=O)c(C3Cc4cncnc4C3)nc2n1)C1CCC(F)(F)CC1 (single isomer, unassigned) [Compound 400]	< 0.1 µM
CCn1nccc1C(=O)N[C@H](c1cn2nc(C[C@H]3C[C@@H](C(F)(F)F)CNC3=O)c(C3CCOCC3)nc2n1)C1CCC(F)(F)CC1	< 0.1 µM
CCn1nccc1C(=O)N[C@H](c1cn2nc(C[C@H]3CC(F)(F)CNC3=O)c(C3CCOCC3)nc2n1)C(C1CC1)C1CC1	< 0.1 µM
CCn1nccc1C(=O)N[C@H](c1cn2nc(C[C@H]3C[C@@H](C(F)(F)F)CNC3=O)c(N3CC4CCC(C3)N4C)nc2n1)C1CCC(F)(F)CC1	< 0.1 µM
CCn1nccc1C(=O)N[C@H](c1cn2nc(CC3C[C@@H](C(F)(F)F)CNC3=O)c(N3CCOCC3)nc2n1)C(C1CC1)C1CC1 (single isomer, unassigned) [Compound 111]	< 0.1 µM
O=C(N[C@H](c1cn2nc(C[C@H]3C[C@@H](C(F)(F)F)CNC3=O)c(C3CCOCC3)nc2n1)C1CCC(F)(F)CC1)c1conc1C1CC1(F)F (single isomer, unassigned) [Compound 144]	< 0.1 µM
CCn1nccc1C(=O)N[C@H](c1cn2nc(C[C@H]3C[C@@H](C(F)(F)F)CNC3=O)c(CC3COC3)nc2n1)C1CCC(F)(F)CC1	< 0.1 µM
O=C(N[C@H](c1cn2nc(C[C@H]3C[C@@H](C(F)(F)F)CNC3=O)cnc2n1)C(C1CC1)C1CC1)c1nonc1C1CC1	< 0.1 µM
CCn1nccc1C(=O)N[C@H](c1cn2nc(CC3C[C@@H](C(F)(F)F)CNC3=O)c(N3CCOCC3)nc2n1)[C@H]1CCCC(F)(F)C1 (single isomer, unassigned) [Compound 90]	< 0.1 µM
CCn1nccc1C(=O)N[C@H](c1cn2nc(C[C@H]3C[C@@H](C(F)(F)F)CNC3=O)c(CN3CCCCC3)nc2n1)C1CCC(F)(F)CC1	< 0.1 µM
Cn1nccc1C(=O)N[C@H](c1cn2nc(CC3C[C@@H](C(F)(F)F)CNC3=O)cnc2n1)C1CCC(F)(F)CC1 (some centres unmarked)	0.1 to 1 µM
CCn1nccc1C(=O)N[C@H](c1cn2nc(C[C@H]3C[C@@H](C(F)(F)F)CNC3=O)c(C3CCN(CCOC)C3)nc2n1)C1CCC(F)(F)CC1 (some centres unmarked)	0.1 to 1 µM
